This collection of values is drawn from patent US4994485A.

The compounds listed here are annotated with their LD50.
test: Acute oral toxicity (lethal dose) in male mice; conditions: mouse, in vivo, acute mortality, mg/kg of body weight
Write it as a number; the unit mg/kg goes unstated.

compound | LD50, mg/kg
CCC[S+]([O-])c1sc(C#N)c(Cl)c1C#N (stereo not shown) | 246
CC[S+]([O-])c1sc(C#N)c(OC)c1C#N (stereo not shown) | 130
C[S+]([O-])c1sccc1[N+](=O)[O-] (stereo not shown) [(b), 2-methylsulphinyl-3-nitrothiophene, reference compound] | 31.6
CCCC[S+]([O-])c1sc(C#N)c(Cl)c1C#N (stereo not shown) | 246
CC[S+]([O-])c1sc(C(C)=O)c(N)c1C#N (stereo not shown) | 141

Indicate the recorded LD50 value for this compound: CC[S+]([O-])c1sc(C#N)c(Cl)c1C#N (stereo not shown)
400

Identify measured LD50 associated with CC[S+]([O-])c1sc(C#N)cc1C#N (stereo not shown)
119
